Recorded HEKBlue TGFβ blocking IC50, one value per entry.
# assay system: T1, human TGFβ2, mature receptor-binding domain (human, UniProt P09858 303-414 (pig entry), The mature TGFβ2 is a disulfide-linked homodimer of this 112-residue chain. The 4A11 epitope spans both monomers (p-1207).)
# T1 sequence: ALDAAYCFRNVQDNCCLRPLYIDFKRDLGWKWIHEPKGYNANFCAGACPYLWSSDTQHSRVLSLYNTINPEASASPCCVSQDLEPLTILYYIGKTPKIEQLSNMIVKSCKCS
# method summary: cell-based or functional assay
Give the quantity in nM, number only.

# annotated cases, reported HEKBlue TGFβ blocking IC50 shown
binder | HEKBlue TGFβ blocking IC50 / nM
h6F12.v1.4 (antibody, human IgG1, kappa, N297G, V domains shown) VH: EVTLKESGPVLVKPTETLTLTCTVSGFSLTTYNVHWVRQPPGKALEWMGLIWNTGGTRYNSALKSRLTISKDTSKSQVVLTMTNMDPVDTATYYCARDPVPNKWHFDFWGPGTLVTVSS VL: DIQMTQSPSTLSASVGDRVTITCLASEDIYSNLAWYQQKPGKSPKLLIYDARSLQDGVPSRFSGSESGPEFTLTISSLQPDDFATYFCQQHHAYPFTFGQGTKVEIKR | 0.02
h6F12.v1.6 (antibody, human IgG1, kappa, N297G, V domains shown) VH: EVTLKESGPVLVKPTETLTLTCTVSGFSLTTYNVHWIRQPPGKALEWMGLIWNTGGTRYNSALKSRLTISKDTSKSQVVLTMTNMDPVDTATYYCARDPVPNKWHFDFWGPGTLVTVSS VL: DIQMTQSPSTLSASVGDRVTITCLASEDIYSNLAWYQQKPGKSPKLLIYDARSLQDGVPSRFSGSESGPEYTLTISSLQPDDFATYFCQQHHAYPFTFGQGTKVEIKR | 0.11

Please examine the following record next.
Prompt line: Bench note: what HEKBlue TGFβ blocking IC50 did h6F12.v1.3 (antibody, human IgG1, kappa, N297G, V domains shown) VH: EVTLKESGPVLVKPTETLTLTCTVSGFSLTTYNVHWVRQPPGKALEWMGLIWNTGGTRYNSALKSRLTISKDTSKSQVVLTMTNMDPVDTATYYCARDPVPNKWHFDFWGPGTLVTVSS VL: DIQMTQSPSTLSASVGDRVTITCLASEDIYSNLAWYQQKPGKSPKLLIYDARSLQDGVPSRFSGSESGTEYTLTISSLQPDDFATYFCQQHHAYPFTFGQGTKVEIKR show?
Response line: 0.01
